- test.summary: MTT cytotoxicity assay in SH-SY5Y cells
- Type: cell-based
- assay.setup: human
readout.kind: CC50 at 24 h (µM)
Numbers only, in µM.

line_notation=COc1ccc(-c2csc(N/N=C(\C)c3ccc(O)cc3)n2)cc1 readout_kind="CC50 at 24 h" numeric_readout=58.3

Could you now look at the following molecule, please?
Task: // returns reported CC50 at 24 h for input COc1ccc(-c2csc(N/N=C(\C)c3cc(O)cc(O)c3)n2)cc1
Result: 49.4

* * *

- system.under.test: DENV2 NS2B–NS3 protease (Dengue virus type 2)
- Construct: Activity of recombinant dengue 2 virus NS3 protease in the presence of a truncated NS2B co-factor; The N-terminal domain of NS3 contains a highly conserved protease-active core; made in house; host or cells: Escherichia coli BL21(DE3)
- test.summary: In vitro DENV2 NS2B/NS3pro inhibition assay using a FRET substrate
- Format: biochemical
- assay.setup: IC50 (µM), DENV2 NS2B–NS3 protease inhibitory activity, 5 µM substrate, 10 nM NS2b-NS3pro, compounds at 1, 10 and 100 µM, 1 h at RT; compounds 3a-3r
Lab note: compare IC50 with 300 µM, writing true (1) if less and false (0) if equal or more.

The following molecules have reported results that may help.
molecule="COc1ccc(OC)c(/C=N/Nc2nc(-c3ccc(Cl)cc3)cs2)c1 [3m]" cat="true (1)"
molecule="O=[N+]([O-])c1cccc(-c2csc(N/N=C/c3ccccc3Br)n2)c1 [3h]" cat="false (0)"
molecule="Cc1ccc(/C=N/Nc2nc(-c3ccc(Cl)cc3)cs2)cc1 [3j]" cat="false (0)"
molecule="O=[N+]([O-])c1cccc(-c2csc(N/N=C/c3ccccc3F)n2)c1 [3f]" cat="true (1)"

Then there is this molecule:
Task: Criterion: IC50 strictly below 300 µM. Is it met by COc1ccc(/C=N/Nc2nc(-c3ccc(Cl)cc3)cs2)cc1OC [3n] ?
Result: true (1)

* * *

- system.under.test: DENV2 NS2B–NS3 protease (Dengue virus type 2, UniProt P14340)
- Construct: Activity of recombinant dengue 2 virus NS3 protease in the presence of a truncated NS2B co-factor; The N-terminal domain of NS3 contains a highly conserved protease-active core; made in house; host or cells: Escherichia coli BL21(DE3)
- Sequence (P14340 1476-1653): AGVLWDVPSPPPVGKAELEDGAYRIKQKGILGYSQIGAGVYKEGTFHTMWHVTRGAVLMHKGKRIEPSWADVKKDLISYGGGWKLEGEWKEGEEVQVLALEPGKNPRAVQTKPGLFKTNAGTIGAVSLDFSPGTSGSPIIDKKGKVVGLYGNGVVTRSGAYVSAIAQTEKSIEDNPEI
- Sequence (P14340 1398-1437): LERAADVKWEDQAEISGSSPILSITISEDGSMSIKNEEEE
- test.summary: In vitro DENV2 NS2B/NS3pro inhibition assay using a FRET substrate
- Assay type: biochemical
- assay.setup: IC50 (µM), DENV protease inhibitory activity, 5 µM substrate, 10 nM NS2b-NS3pro, compounds at 1, 10 and 100 µM, 1 h at RT; compounds 3s-3an
readout.kind: log10 of IC50 (log10 of the value in µM)
Use the decimal logarithm of IC50 (µM).

line_notation=COc1ccc(OC)c(/C(C)=N/Nc2nc(-c3ccc(Cl)cc3)cs2)c1 system_under_test="DENV2 NS2B–NS3 protease (Dengue virus type 2, UniProt P14340)" numeric_readout=2.09
line_notation=COc1ccc(/C(C)=N/Nc2nc(-c3cccc([N+](=O)[O-])c3)cs2)cc1 system_under_test="DENV2 NS2B–NS3 protease (Dengue virus type 2, UniProt P14340)" numeric_readout=2.52
line_notation=COc1ccc(/C(C)=N/Nc2nc(-c3cccc([N+](=O)[O-])c3)cs2)c(OC)c1 system_under_test="DENV2 NS2B–NS3 protease (Dengue virus type 2, UniProt P14340)" numeric_readout=2.23

Below are some molecules; for each one, tell me its log10 of IC50.
1. C/C(=N\Nc1nc(-c2ccc(Cl)cc2)cs1)c1ccc(O)cc1
2. COc1ccc(/C(C)=N/Nc2nc(-c3ccc(Cl)cc3)cs2)cc1OC
3. COc1ccc(/C(C)=N/Nc2nc(-c3cccc([N+](=O)[O-])c3)cs2)cc1OC

Result:
2.16
2.19
1.50

* * *

Give measured IC50 for each item. Keep answers brief.
- system.under.test: DENV2 NS2B–NS3 protease (Dengue virus type 2)
- Construct: Activity of recombinant dengue 2 virus NS3 protease in the presence of a truncated NS2B co-factor; The N-terminal domain of NS3 contains a highly conserved protease-active core; made in house; host or cells: Escherichia coli BL21(DE3)
- test.summary: In vitro DENV2 NS2B/NS3pro inhibition assay using a FRET substrate
- Assay type: biochemical
- assay.setup: IC50 (µM), DENV2 NS2B–NS3 protease inhibitory activity, 5 µM substrate, 10 nM NS2b-NS3pro, compounds at 1, 10 and 100 µM, 1 h at RT; compounds 3a-3r
Give bare numbers, in µM.

compound="O=[N+]([O-])c1cccc(-c2csc(N/N=C/c3cccc(Br)c3)n2)c1 [3i]" system_under_test="DENV2 NS2B–NS3 protease (Dengue virus type 2)" numeric_readout=413
compound="COc1ccccc1/C=N/Nc1nc(-c2cccc([N+](=O)[O-])c2)cs1 [3c]" system_under_test="DENV2 NS2B–NS3 protease (Dengue virus type 2)" numeric_readout=229
compound="COc1ccc(OC)c(/C=N/Nc2nc(-c3cccc([N+](=O)[O-])c3)cs2)c1 [3d]" system_under_test="DENV2 NS2B–NS3 protease (Dengue virus type 2)" numeric_readout=139

Would you mind listing IC50 for each of the following compounds?
1. COc1ccc(/C=N/Nc2nc(-c3cccc([N+](=O)[O-])c3)cs2)cc1OC [3e]
2. O=[N+]([O-])c1cccc(-c2csc(N/N=C/c3cccc(Cl)c3)n2)c1 [3g]

Result:
1: 502; 2: 299

* * *

Would you mind telling me the reported IC50 of each entry?
- system.under.test: DENV2 NS2B–NS3 protease (Dengue virus type 2, UniProt P14340)
- Construct: Activity of recombinant dengue 2 virus NS3 protease in the presence of a truncated NS2B co-factor; The N-terminal domain of NS3 contains a highly conserved protease-active core; made in house; host or cells: Escherichia coli BL21(DE3)
- test.summary: In vitro DENV2 NS2B/NS3pro inhibition assay using a FRET substrate
- Assay type: biochemical
- assay.setup: IC50 (µM), DENV2 NS2B–NS3 protease inhibitory activity, 5 µM substrate, 10 nM NS2b-NS3pro, compounds at 1, 10 and 100 µM, 1 h at RT; compounds 3a-3r

Some compounds with recorded IC50:
compound="Cc1ccc(/C=N/Nc2nc(-c3cccc([N+](=O)[O-])c3)cs2)cc1 [3a]" readout_kind=IC50 result="> 100 µM"
compound="Fc1ccccc1/C=N/Nc1nc(-c2ccc(Cl)cc2)cs1 [3o]" readout_kind=IC50 result="> 100 µM"

Task: State its IC50 on DENV2 NS2B–NS3 protease (Dengue virus type 2, UniProt P14340): Clc1ccc(-c2csc(N/N=C/c3ccccc3Br)n2)cc1 [3q]
Result: > 100 µM
